This listing pairs compounds with measured melting point.
PROPERTY MEASURED: melting point

{"COMPOUND": "COc1cccc(NC(=O)Nc2ccc(Nc3ncnc4sc(C(=O)NCCC(=O)NO)c(C)c34)cc2)c1 [Compound 11b]", "PROPERTY MEASURED": "melting point", "MEASURED VALUE": "257 to 260 °C"}
{"COMPOUND": "CCOC(=O)c1sc2ncnc(Nc3ccccc3)c2c1C [Compound 14b]", "PROPERTY MEASURED": "melting point", "MEASURED VALUE": "170 to 172 °C"}
{"COMPOUND": "CCOC(=O)c1sc2ncnc(Nc3ccc(NC(=O)Nc4ccccc4)cc3)c2c1C [Compound 6a]", "PROPERTY MEASURED": "melting point", "MEASURED VALUE": "319 to 322 °C"}
{"COMPOUND": "Cc1c(C(=O)NCCC(=O)NO)sc2ncnc(Nc3ccccc3)c12 [Compound 19b]", "PROPERTY MEASURED": "melting point", "MEASURED VALUE": "267 to 270 °C"}
{"COMPOUND": "COc1cccc(NC(=O)Nc2ccc(Nc3ncnc4sc(C(=O)NCCCC(=O)NO)c(C)c34)cc2)c1 [Compound 12b]", "PROPERTY MEASURED": "melting point", "MEASURED VALUE": "231 to 233 °C"}
